Please go through the items and note down their normalized growth.
# Method Description: chemical genetic growth profiling, strain panel (AID 1159580);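 also: tested at 20 µM; growth read once vehicle control cultures reached saturation at 30 °C; 1 = growth at the plate median or of vehicle wells; lower values mean less growth of the strain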
# Experimental Parameters: S. cerevisiae deletion strains, growth OD, locus YLR039C, strain RIC1, hits give low values
About 2,000 (36%) of roughly 5,500 compounds were called active. Inconclusive results (about 18%) are left out. The list shows a part of the results.
Answers are plain numbers.

Sample answers from the record:
Compound	Observed Value
COC(=O)c1c(C)c2c(c(C)c1OC)OC(=O)c1c(C)c(Cl)c(OC)c(Cl)c1O2	1.06
N#CC(c1ccccc1)N1CCCCC1 (stereo unspecified)	0.969
CC(C)c1ccc2c(c1)CCC1C(C)(C(N)=O)CCCC21C (stereo unspecified)	0.569
CC(C)c1ccc2c(c1)CCC1[C@](C)(CN)CCC[C@]21C (stereo partly specified)	1.28
c1ccc(-c2nc(-c3cccs3)cs2)cc1	0.273
NC(=O)NC(=O)Cc1ccccc1	1.02
COc1ccc2cc(CCC(C)=O)ccc2c1	1.11
O=S(=O)(Oc1ccc(OCc2ccccc2)cc1)c1cc(Cl)cc(Cl)c1	1.01
COC(OC)c1cc(=O)[nH]c(=S)[nH]1	1.07
CC(N=C(NC#N)Nc1ccncc1)C(C)(C)C (stereo unspecified)	1.02

Report normalized growth for every entry below.
1. CCCc1c(OCCCCc2nn[nH]n2)ccc(C(C)=O)c1O
2. Cc1onc(-c2c(Cl)cccc2Cl)c1NC(=O)O/N=C\c1ccc(N(C)C)cc1
3. COc1cc(C/C=C/c2ccccc2)c(OC)cc1O
4. OC[C@H]1O[C@@H](O[C@H]2[C@H](O)[C@@H](O)[C@@H](O)O[C@@H]2CO)[C@H](O)[C@@H](O)[C@@H]1O

A)
1: 1.05; 2: 0.865; 3: 0.91; 4: 1.11
